Biological target: PI3Kα (Homo sapiens, UniProt P42336)
Construct: His tag (pFastbac HTb vector) (N); FLAG; made in house; host or cells: Sf21 insect cells (baculovirus)
Sequence (P42336 whole entry): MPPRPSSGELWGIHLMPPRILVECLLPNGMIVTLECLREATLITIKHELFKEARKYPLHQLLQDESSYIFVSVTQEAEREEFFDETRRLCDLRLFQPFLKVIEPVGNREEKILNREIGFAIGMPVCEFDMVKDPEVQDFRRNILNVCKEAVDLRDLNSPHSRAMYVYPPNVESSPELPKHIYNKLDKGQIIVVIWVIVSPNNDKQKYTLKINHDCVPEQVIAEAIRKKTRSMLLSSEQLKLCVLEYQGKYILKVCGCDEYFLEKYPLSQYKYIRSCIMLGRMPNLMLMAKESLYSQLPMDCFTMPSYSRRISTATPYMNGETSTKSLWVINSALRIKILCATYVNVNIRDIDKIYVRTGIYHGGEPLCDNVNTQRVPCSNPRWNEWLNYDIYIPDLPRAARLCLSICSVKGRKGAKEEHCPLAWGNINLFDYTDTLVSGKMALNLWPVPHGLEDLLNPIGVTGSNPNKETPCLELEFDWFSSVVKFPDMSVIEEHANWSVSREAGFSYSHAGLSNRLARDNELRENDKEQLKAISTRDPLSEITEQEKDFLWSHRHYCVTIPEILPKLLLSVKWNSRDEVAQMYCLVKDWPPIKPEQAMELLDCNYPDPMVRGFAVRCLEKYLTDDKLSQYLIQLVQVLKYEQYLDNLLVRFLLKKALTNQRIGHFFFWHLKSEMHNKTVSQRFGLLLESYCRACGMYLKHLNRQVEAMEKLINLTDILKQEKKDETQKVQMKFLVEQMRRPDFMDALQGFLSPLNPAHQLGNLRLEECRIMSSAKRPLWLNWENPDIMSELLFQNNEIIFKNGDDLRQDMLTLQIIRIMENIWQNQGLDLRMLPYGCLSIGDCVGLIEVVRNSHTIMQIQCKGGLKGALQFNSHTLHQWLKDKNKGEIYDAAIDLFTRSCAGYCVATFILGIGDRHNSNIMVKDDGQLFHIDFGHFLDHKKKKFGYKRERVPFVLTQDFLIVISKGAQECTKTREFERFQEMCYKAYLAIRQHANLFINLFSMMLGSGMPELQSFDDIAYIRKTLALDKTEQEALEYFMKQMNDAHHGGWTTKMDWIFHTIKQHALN
Sequence (P27986 whole entry partner): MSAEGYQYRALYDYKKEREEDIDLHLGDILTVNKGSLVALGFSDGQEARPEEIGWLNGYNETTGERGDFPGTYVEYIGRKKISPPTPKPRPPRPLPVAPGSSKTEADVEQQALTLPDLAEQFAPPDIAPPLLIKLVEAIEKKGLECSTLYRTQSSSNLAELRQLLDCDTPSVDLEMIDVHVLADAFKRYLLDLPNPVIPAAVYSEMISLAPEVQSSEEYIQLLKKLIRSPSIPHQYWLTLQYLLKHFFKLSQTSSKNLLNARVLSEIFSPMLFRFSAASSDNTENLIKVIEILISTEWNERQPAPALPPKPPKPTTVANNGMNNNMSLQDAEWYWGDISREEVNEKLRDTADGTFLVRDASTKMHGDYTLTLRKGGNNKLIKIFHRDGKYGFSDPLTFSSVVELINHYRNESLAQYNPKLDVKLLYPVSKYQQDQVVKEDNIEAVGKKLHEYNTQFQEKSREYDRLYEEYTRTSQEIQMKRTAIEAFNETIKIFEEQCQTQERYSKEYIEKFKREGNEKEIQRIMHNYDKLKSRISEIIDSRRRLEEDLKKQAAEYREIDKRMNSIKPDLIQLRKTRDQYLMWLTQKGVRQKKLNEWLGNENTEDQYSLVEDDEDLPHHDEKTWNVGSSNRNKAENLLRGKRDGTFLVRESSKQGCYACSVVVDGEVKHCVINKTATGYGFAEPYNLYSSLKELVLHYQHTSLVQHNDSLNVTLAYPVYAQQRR
Assay: Biochemical assay of PI3K potency and selectivity using 20 μM ATP, Alpha
Conditions: 20 μM ATP; read-out: Alpha IC50
property measured: IC50
Answers without a unit are incomplete; give the number and then its unit.

What is its IC50 for PI3Kα (Homo sapiens, UniProt P42336)? Entry: Nc1ncnc2c1ncn2Cc1nc2cccc(Cl)c2c(=O)n1-c1ccccc1-c1ccccc1
82 µM

Can you handle Cc1cccc2nc(CSc3ncnc4[nH]cnc34)n(-c3c(Cl)cccc3Cl)c(=O)c12 next?
19 µM

Can you handle Cc1cccc2nc(Cn3cnc4c(N)ncnc43)n(-c3ccccc3C(C)C)c(=O)c12 next?
49 µM
